Reference source: ChEMBL document CHEMBL1123813

Species on record: Rattus norvegicus
Experiment: Inhibition of carnitine-dependent oxidation of [1-14C]palmitate to 14CO2 in rat liver mitochondria was measured in vitro at 2 mM concentration
For each entry below, report its inhibition value.

**Q:** # input compound: CCCC(=O)NC(CC(=O)[O-])C[N+](C)(C)C (centres undefined) ; wanted: its inhibition
**A:** 50%

**Q:** Try the compound C[N+](C)(C)CC(CC(=O)[O-])NC(N)=O (centres undefined)
**A:** 72%

**Q:** Try the compound COC(=O)NC(CC(=O)[O-])C[N+](C)(C)C (centres undefined)
**A:** 0%

**Q:** Try the compound Cc1ccc(S(=O)(=O)NC(CC(=O)[O-])C[N+](C)(C)C)cc1 (centres undefined)
**A:** 100%

**Q:** Try the compound CCC(=O)NC(CC(=O)[O-])C[N+](C)(C)C (centres undefined)
**A:** 44%

**Q:** Try the compound CNC(CC(=O)[O-])C[N+](C)(C)C (centres undefined)
**A:** 100%

**Q:** Try the compound C[N+](C)(C)CC(CC(=O)[O-])NC(=O)OCc1ccccc1 (centres undefined)
**A:** 98%

**Q:** Try the compound CC(=O)NC(CC(=O)[O-])C[N+](C)(C)C (centres undefined)
**A:** 38%

**Q:** Try the compound C[N+](C)(C)C[C@@H](CC(=O)[O-])NC=O
**A:** 84%
